Assay: modulators of S6 phosphorylation in cells, primary screen, cell-based, A549, cytoblot, luminescence, serum-stimulated (AID 1158);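 also: serum-stimulated A549 lung adenocarcinoma cells; signal is phosphorylated S6 detected by cytoblot immunostaining with HRP secondary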
Settings: A549 phospho-S6 cytoblot, 5 h, higher = more signal
The label depends only on z-score: Yes if it is at least 0.4, No if it is smaller.

Form field: z-score at least 0.4? Entry: `C=CC[C@]1(C(=O)N2CCOCC2)N=C(c2ccc(OCCCO)cc2)O[C@H]1c1ccccc1`
No

Form field: z-score at least 0.4? Entry: CS(=O)(=O)CCOC(=O)C1=CC(c2ccc(CO)cc2)=CC(C2CC2)N(Cc2cc3c(cc2Br)OCO3)C=C1C(=O)OCCS(C)(=O)=O (stereo unspecified)
No

Form field: z-score at least 0.4? Entry: `COCCOC(=O)N1C(=O)[C@@]2(c3cc(C#CCNC(N)=O)ccc31)[C@H](c1ccc(O)cc1)N1[C@H](c3ccccc3)[C@H](c3ccccc3)OC(=O)[C@H]1[C@@H]2C(=O)Nc1nc2ccccc2s1`
Yes

Form field: z-score at least 0.4? Entry: `CCCNC(=O)[C@@H]1c2ccccc2C(=O)N(Cc2ccccc2)[C@H]1c1ccc(CO)cc1`
No

Form field: z-score at least 0.4? Entry: [N-]=[N+]=NCc1ccccc1C[C@]1(C(=O)NCC(O)CO)N=C(c2ccc(OCCCO)cc2)O[C@H]1c1ccccc1N=[N+]=[N-] (stereo partly specified)
Yes

Form field: z-score at least 0.4? Entry: `COCCOC(=O)N1C(=O)[C@@]2(c3cc(C#CCNC(N)=O)ccc31)[C@H](C(=O)N1CCN(c3ncccn3)CC1)[C@H]1C(=O)O[C@H](c3ccccc3)[C@H](c3ccccc3)N1[C@@H]2c1ccccc1OCCO`
Yes

###

Biological target: Fibroblast growth factor 2 (Homo sapiens) (UniProt P09038)
Sequence (P09038 whole entry, looked up): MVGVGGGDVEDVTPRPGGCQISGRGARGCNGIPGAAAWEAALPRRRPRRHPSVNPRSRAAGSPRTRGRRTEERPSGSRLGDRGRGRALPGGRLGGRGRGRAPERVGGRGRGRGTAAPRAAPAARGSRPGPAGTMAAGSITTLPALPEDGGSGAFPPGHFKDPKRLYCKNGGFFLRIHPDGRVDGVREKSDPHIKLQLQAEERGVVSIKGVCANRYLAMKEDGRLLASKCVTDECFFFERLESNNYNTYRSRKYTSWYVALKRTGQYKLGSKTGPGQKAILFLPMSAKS
Assay: FGF2 binders on small-molecule microarrays, primary screen, biochemical, small-molecule microarray, 635/667 nm fluorescence (AID 1133)
Conditions: small-molecule microarray binding, FGF2, fluorescence 635/667; higher = more signal
quantity: composite z-score

What measured composite z-score goes with `CCOC(=O)C[C@H]1[C@H](OC(=O)c2ccc(-c3ccccc3)cc2)[C@@H](NC(=O)c2ccc3ccccc3c2)c2cc(OCCCO)ccc2N1C(=O)Cc1ccc(OC)cc1` ?
-0.0546

What measured composite z-score goes with `COCCOC(=O)N1C(=O)[C@@]2(c3cc(C#CC4=CCCCC4)ccc31)[C@H](C(=O)N1CCc3cc(OC)c(OC)cc3C1)[C@H]1C(=O)O[C@H](c3ccccc3)[C@H](c3ccccc3)N1[C@@H]2c1ccccc1OCCO` ?
1.66

What measured composite z-score goes with `NCCCCCCNC(=O)[C@H]1C[C@H]2C(=O)NCC(=O)N2[C@H]1c1cccc(OCCO)c1` ?
1.55

###

Provide the recorded composite z-score for the entries that follow.
Experiment: small-molecule microarray binders of probe aShh, primary screen, biochemical, biotinylated probe, 635/667 nm fluorescence (AID 1114);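 also: probe is biotin-labelled aShh protein from a stem cell growth factor screen; measures binding of labelled protein to compounds printed on the slide; score merges feature fluorescence at 667 nm with signal-to-noise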
Conditions: higher = more signal
Write the number on its own, no unit after it.

What measured composite z-score goes with `[N-]=[N+]=NCc1ccccc1C[C@]1(C(=O)O)N=C(c2ccc(OCCCO)cc2)O[C@H]1c1ccccc1` ?
-0.0626

What measured composite z-score goes with `COCCOC(=O)N1C(=O)[C@@]2(c3cc(C#CCNC(N)=O)ccc31)[C@H](c1ccc(O)cc1)N1[C@H](c3ccccc3)[C@H](c3ccccc3)OC(=O)[C@H]1[C@@H]2C(=O)Nc1nc2ccccc2s1` ?
-0.0626

What measured composite z-score goes with `COCC(=C=CC[C@H](O)c1ccc(OCCO)cc1)C[C@H](O)c1cc(Cl)cc(Cl)c1O` ?
0.678

What measured composite z-score goes with `CCCCC=C[C@@H](NC(=O)c1ccco1)c1ccccc1` ?
0.356

What measured composite z-score goes with `COCCOC(=O)N1C(=O)[C@@]2(c3ccccc31)[C@H](C(=O)Nc1nc3ccccc3s1)[C@H]1C(=O)O[C@H](c3ccccc3)[C@H](c3ccccc3)N1[C@@H]2c1ccc(OCCO)cc1` ?
-0.0626

What measured composite z-score goes with `CCC[C@@H]1C=C(C(=O)O)[C@H](c2ccc(C)cc2)N1S(=O)(=O)c1ccc(C)cc1` ?
0.0815

What measured composite z-score goes with `COC(=O)[C@@]1(Cc2ccccc2)N=C(c2ccc(OCCCO)cc2)O[C@H]1c1ccccc1N=[N+]=[N-]` ?
0.297

What measured composite z-score goes with `O=C/C=C/c1ccc2c(c1)OCO2` ?
-0.35

What measured composite z-score goes with CCN(CC)c1ccc(N2CC=CC34O[C@@H]5C=CCCOC(=O)C5[C@H]3C(=O)N(CCCCCO)[C@@H]4C2=O)cc1 (stereo partly specified) ?
0.0756

What measured composite z-score goes with `COc1ccc([Si](C)(C)[C@@H]2[C@@H](CCn3cc([C@H](O)c4ccccc4)nn3)O[C@]3(C(=O)N(Cc4cccc(N5CCOC5=O)c4)c4ccccc43)[C@H]2C)cc1` ?
-0.117

What measured composite z-score goes with `CC(C)(C)OC(=O)CC[C@@]1(C(=O)NCCN2CCOCC2)N=C(c2ccc(OCCCO)cc2)O[C@@H]1c1ccccc1` ?
-0.138

What measured composite z-score goes with `C[C@]1(C(=O)NCc2ccccc2)c2ccccc2C(=O)N(Cc2ccc(OC(F)(F)F)cc2)[C@H]1c1ccc(CO)cc1` ?
-0.304

What measured composite z-score goes with `COC(=O)[C@@]1(Cc2ccccc2)[C@H]2c3cc(C(=O)N4CCCC4)n(C)c3C[C@H]2CN1C(=O)c1ccccc1` ?
-0.2

What measured composite z-score goes with `NC(=O)NCC#Cc1ccc2c(c1)[C@]1(C(=O)N2)[C@H](C(=O)NC[C@H](O)c2ccccc2)[C@H]2C(=O)O[C@H](c3ccccc3)[C@H](c3ccccc3)N2[C@@H]1c1ccc(O)cc1` ?
0.456

What measured composite z-score goes with O=C1C2C=CC(C(O)c3ccc(-c4ccccc4)s3)N(n3cnnc3)C2C(=O)N1Cc1ccccc1 (stereo unspecified) ?
0.0062

What measured composite z-score goes with `O=C1N(CCS(=O)(=O)c2ccccc2)Cc2ccccc2[C@H]2OC(c3ccc(OCCCO)cc3)=N[C@@]12CCS(=O)(=O)c1ccccc1` ?
0.0348

Hello, the source for this data is PubChem BioAssay, in case you need it.
